Entries and their measured PLATELET COUNT follow.
Species on record: Rattus norvegicus
Assay: DrugMatrix - Regimen: Daily Repeat
Type: toxicity, organism-based, Sprague-Dawley
Parameters: regimen Daily Repeat, gender Male, age 6-8 weeks
Conditions: in vivo, po, 0 mg/kg, 72 h, tissue Blood, route oral GAVAGE, dose level Control, time 3 day, vehicle 100 % WATER
State the result as a value with its unit after it.

Here's what some known entries look like.
Cc1ncc([N+](=O)[O-])n1CCO	1181.33 x10E3/uL
C[N+](C)(C)CCO.[Cl-] [CHOLINE CHLORIDE]	1016.67 x10E3/uL
CC(C)NCC(O)COc1cccc2ccccc12 (centres undefined)	1026.17 x10E3/uL
ClC(Cl)Cl [CHLOROFORM]	1181.33 x10E3/uL
COC(=O)C1=C(C)NC(C)=C(C(=O)OCC(C)C)C1c1ccccc1[N+](=O)[O-] (centres undefined)	1124.83 x10E3/uL

Here's the next entry for you.
Could you share which PLATELET COUNT value was measured for CC(C)C[C@H](NC(=O)[C@@H](O)[C@H](N)Cc1ccccc1)C(=O)O ?
1312.17 x10E3/uL

====

Organism: Rattus norvegicus
Experiment: DrugMatrix - Regimen: Daily Repeat
Assay type: toxicity, organism-based, Sprague-Dawley
Parameters: regimen Daily Repeat, gender Male, age 6-8 weeks
Details: in vivo, po, 1500 mg/kg, 120 h, tissue Blood, route oral GAVAGE, dose level High, time 5 day, vehicle .5 % CMC
Entries and their measured LYMPHOCYTE follow.
Give the value, in units of %, as a plain number.

CNC(=C[N+](=O)[O-])NCCSCc1ccc(CN(C)C)o1 [RANITIDINE]	92.67
CO[C@H]1/C=C/O[C@@]2(C)Oc3c(C)c(O)c4c(c3C2=O)C2=NC3(CCN(CC(C)C)CC3)NC2=C(NC(=O)/C(C)=C\C=C\[C@H](C)[C@H](O)[C@@H](C)[C@@H](O)[C@@H](C)[C@H](OC(C)=O)[C@@H]1C)C4=O [RIFABUTIN]	79
Cc1cc(=O)n(-c2ccccc2)n1C [ANTIPYRINE]	81.33
NC(=O)c1cnccn1 [PYRAZINAMIDE]	86
Cc1ccc(S(=O)(=O)NC(=O)NN2CC3CCCC3C2)cc1 (configuration not stated) [GLICLAZIDE]	90

Could you share which LYMPHOCYTE value was measured for C[C@]1(Cn2ccnn2)[C@H](C(=O)O)N2C(=O)C[C@H]2S1(=O)=O [TAZOBACTAM] ?
91

Could you share which LYMPHOCYTE value was measured for O=C(N[C@H](CO)[C@H](O)c1ccc([N+](=O)[O-])cc1)C(Cl)Cl [CHLORAMPHENICOL] ?
90.67

====

Species on record: Rattus norvegicus
Assay: DrugMatrix - Regimen: Daily Repeat
Assay type: toxicity, organism-based, Sprague-Dawley
Design: regimen Daily Repeat, gender Male, age 6-8 weeks
Conditions: in vivo, iv, 0 mg/kg, 72 h, tissue Plasma, dose level Control, time 3 day, vehicle 100 % SALINE
endpoint: CREATINE PHOSPHOKINASE
State the result as a value with its unit after it.

Here's what some known entries look like.
COc1cccc2c1C(=O)c1c(O)c3c(c(O)c1C2=O)C[C@@](O)(C(=O)CO)C[C@@H]3O[C@H]1C[C@H](N)[C@@H](O)[C@H](C)O1 [EPIRUBICIN]	339.5 u/L
COc1cccc2c1C(=O)c1c(O)c3c(c(O)c1C2=O)C[C@@](O)(C(=O)CO)C[C@@H]3O[C@H]1C[C@H](N)[C@H](O)[C@H](C)O1	554.5 u/L
CCC1=C[C@@H]2CN(C1)Cc1c([nH]c3ccccc13)[C@@](C(=O)OC)(c1cc3c(cc1OC)N(C)[C@H]1[C@@](O)(C(=O)OC)[C@H](OC(C)=O)[C@]4(CC)C=CCN5CC[C@]31[C@@H]54)C2	275.33 u/L
CCc1c2c(nc3ccc(OC(=O)N4CCC(N5CCCCC5)CC4)cc13)-c1cc3c(c(=O)n1C2)COC(=O)[C@]3(O)CC	339.5 u/L

Here's the next entry for you.
Could you share which CREATINE PHOSPHOKINASE value was measured for CC[C@]1(O)C[C@@H]2CN(CCc3c([nH]c4ccccc34)[C@@](C(=O)OC)(c3cc4c(cc3OC)N(C)[C@H]3[C@@](O)(C(=O)OC)[C@H](OC(C)=O)[C@]5(CC)C=CCN6CC[C@]43[C@@H]65)C2)C1 ?
732.67 u/L
